- System tested: mouse TAAR1 (Mus musculus (Mouse), UniProt Q923Y8)
- Sequence (Q923Y8 whole entry): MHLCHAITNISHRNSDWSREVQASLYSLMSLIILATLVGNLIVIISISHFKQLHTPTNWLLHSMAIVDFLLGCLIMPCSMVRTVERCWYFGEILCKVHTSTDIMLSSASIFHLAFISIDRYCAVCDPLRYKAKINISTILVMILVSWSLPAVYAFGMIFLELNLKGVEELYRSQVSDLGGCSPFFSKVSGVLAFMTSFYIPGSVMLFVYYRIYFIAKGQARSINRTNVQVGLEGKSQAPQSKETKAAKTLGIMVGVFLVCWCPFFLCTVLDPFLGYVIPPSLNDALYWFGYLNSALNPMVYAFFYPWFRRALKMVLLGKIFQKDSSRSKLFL
- Procedure text: Radioligand binding assay on mouse TAAR1
- Conditions: mouse TAAR1, HEK-293 membranes; first value of the mouse/rat pair
- Description: Construction of TAAR Expression Plasmids and Stably Transfected Cell Lines For the construction of expression plasmids the coding sequences of human, rat and mouse TAAR 1 were amplified from genomic DNA essentially as described by Lindemann et al.. The Expand High Fidelity PCR System (Roche Diagnostics) was used with 1.5 mM Mg^2+ and purified PCR products were cloned into pCR2.1-TOPO cloning vector (Invitrogen) following the instructions of the manufacturer. […]
Property name: Ki (µM)
Your answer should be a plain number; it is taken to be in µM.

// solved cases for Ki follow
c1cc2c(cc1Nc1ncc(C3CC3)cn1)CCN1CCNC[C@@H]21 [Example 14] ... 0.0066
Cc1cc(Nc2ccc3c(c2)CCN2CCNC[C@@H]32)nc(C(F)(F)F)n1 [Example 20] ... 0.0364
FC(F)(F)c1cnc(Nc2ccc3c(c2)CCN2CCNC[C@H]32)cn1 [Example 12] ... 0.219

Request - read-out Ki | tested on mouse TAAR1 (Mus musculus (Mouse), UniProt Q923Y8) | molecule O=C(Nc1ccc2c(c1)CCN1CCNC[C@@H]21)c1ccnc(C(F)(F)F)c1 [Example 1]
0.121

Request - read-out Ki | tested on mouse TAAR1 (Mus musculus (Mouse), UniProt Q923Y8) | molecule FC(F)(F)c1cnc(Nc2ccc3c(c2)CCN2CCNC[C@@H]32)nc1 [Example 6]
0.0374

Request - read-out Ki | tested on mouse TAAR1 (Mus musculus (Mouse), UniProt Q923Y8) | molecule Fc1cccc2c1CCN1CCNC[C@@H]21 [Example 30]
0.176

// provenance: patent US9828374B2
